- SYSTEM TESTED: T1, human MSLN-R3-his protein (human, UniProt Q13421 487-598)
- T1 construct: Made in HEK293E cells, purified on nickel column; also called hMSLN-R3-his; human MSLN-R3 protein; not shown: His tag
- T1 sequence (Q13421 495-606): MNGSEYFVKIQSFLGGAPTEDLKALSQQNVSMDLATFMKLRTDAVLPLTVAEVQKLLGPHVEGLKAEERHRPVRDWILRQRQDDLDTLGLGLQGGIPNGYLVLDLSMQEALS
- PROTOCOL: ELISA, coated antigen, no antibody (blank)
OD450 values, listed per item

[
  {
    "BINDER": "S009-F4-94.15 chimeric antibody (antibody, human IgG1, kappa, V domains shown, Human-murine chimeric antibody: murine VH/VL on human IgG1 heavy and kappa light constant regions) VH: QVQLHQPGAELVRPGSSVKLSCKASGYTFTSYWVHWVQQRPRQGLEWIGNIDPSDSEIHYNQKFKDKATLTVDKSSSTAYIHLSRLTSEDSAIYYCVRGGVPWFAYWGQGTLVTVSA VL: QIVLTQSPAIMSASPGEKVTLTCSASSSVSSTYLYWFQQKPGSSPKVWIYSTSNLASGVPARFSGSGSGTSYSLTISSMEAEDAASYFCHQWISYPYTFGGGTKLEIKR",
    "OD450": 0.07
  },
  {
    "BINDER": "Tab106 (YP218, hIgG1) (antibody, V domains shown, Control: YP218 VH and VL recombined into human IgG1 CH and CL expression vectors; also called YP218 human IgG1 antibody) VH: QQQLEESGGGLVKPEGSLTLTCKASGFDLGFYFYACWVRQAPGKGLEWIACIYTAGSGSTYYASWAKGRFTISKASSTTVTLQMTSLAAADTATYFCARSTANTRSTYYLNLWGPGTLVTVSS VL: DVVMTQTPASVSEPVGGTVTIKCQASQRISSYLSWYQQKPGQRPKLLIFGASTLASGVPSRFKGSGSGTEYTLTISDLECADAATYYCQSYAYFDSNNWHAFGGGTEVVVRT",
    "OD450": 0.07
  }
]
